The values you see were collected from patent US20250186600A1.

Reported values of Viscosity normalized to control for individual entries
system: omalizumab; test: Viscosity of omalizumab solution by DLS of gold nanoparticles (Example 62); conditions: Table 62B series; omalizumab approximately 200 mg/mL, excipient 0.1M or lower, His HCl pH 6.0, 25° C.
Counter-ions that a name gives are not always drawn.
quantity kind: Viscosity normalized to control

O=C(O)[C@]1(O)C[C@@H](O)[C@@H](O)[C@H](O)C1 [quinic acid] :: 0.67
CNCC(=O)O [sarcosine] :: 1.33
NCCS [cysteamine HCl] :: 0.73
NCCCC[C@H](N)C(=O)O [lysine] :: 0.46
Nc1ccncc1 [Excipient 4-aminopyridine, 4-aminopyridine] :: 0.59
NCCCCNCCCN [spermidine] :: 0.31
Nc1nc(=O)c2c([nH]1)NCC(CNc1ccc(C(=O)N[C@@H](CCC(=O)[O-])C(=O)[O-])cc1)N2C=O.[Ca+2] (some centres unmarked) [folinic acid calcium salt] :: 0.93
NCCO [ethanolamine HCl] :: 0.51
NCc1cccc(CN)c1 [m-xylylenediamine] :: 0.22
NC(C(=O)O)C(O)c1ccccc1 (racemic) [DL-3-phenylserine] :: 1.04
OCCN(CCO)c1nc(N2CCCCC2)c2nc(N(CCO)CCO)nc(N3CCCCC3)c2n1 [dipyridamole] :: 1.10
